Data provenance: patent US20210324028A1

Measured Target: T1, human IL-15Rα (human, UniProt Q13261 31-205, limits assumed)
T1 construct: also called hIL-15Rα; IL-15 receptor alpha
T1 sequence (Q13261 31-205 limits assumed): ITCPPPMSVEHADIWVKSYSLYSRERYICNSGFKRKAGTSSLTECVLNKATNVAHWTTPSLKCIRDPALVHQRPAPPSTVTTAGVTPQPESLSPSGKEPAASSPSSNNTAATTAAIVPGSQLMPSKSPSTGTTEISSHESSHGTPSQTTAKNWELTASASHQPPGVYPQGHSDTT
Assay Remarks: SPR, steady state
Exercise: for every item that follows, state its recorded Kd.
Could you give me the number in nM? Just the number is fine.

# lookup: Kd of hIL-15 V49R/H32N (ligand) NWVNVISDLKKIEDLIQSMHIDATLYTESDVNPSCKVTAMKCFLLELQRISLESGDASIHDTVENLIILANNSLSSNGNVTESGCKECEELEEKNIKEFLQSFVHIVQMFINTGGGGSGHHHHHHHHGGGLNDIFEAQKIEWHE
85.9

Same thing, different binder: hIL-15 V49R/N72A (ligand) NWVNVISDLKKIEDLIQSMHIDATLYTESDVHPSCKVTAMKCFLLELQRISLESGDASIHDTVENLIILANASLSSNGNVTESGCKECEELEEKNIKEFLQSFVHIVQMFINTGGGGSGHHHHHHHHGGGLNDIFEAQKIEWHE
117
